target: hDRD2 (Homo sapiens (Human), UniProt P14416); assay: cell-based
Bridge positions count the residues as written; N and C are the ends. Square brackets hold non-standard residues; d marks the D form. Peptide text beside a SMILES is read from it. * marks the point of attachment. X2 = CN1C[C@H](CSCC(=O)*)C[C@@H]2c3cccc4[nH]cc(c34)C[C@H]21; 4Pal = N[C@@H](Cc1ccncc1)C(=O)O; dDab = NCC[C@@H](N)C(=O)O
For each record, check the reported EC50: if it is below 40 nM write true, else write false.

[[record]]
molecule = "C[C@@H](O)[C@@H]1NC(=O)[C@H](CCCCN)NC(=O)[C@@H](Cc2c[nH]c3ccccc23)NC(=O)[C@H](Cc2cccnc2)NC(=O)[C@H](Cc2ccccc2)NC(=O)[C@H](CCCNC(=N)N)NC(=O)[C@H](NC[C@H](Cc2ccc(O)cc2)NC(=O)CSC[C@@H]2C[C@@H]3c4cccc5[nH]cc(c45)C[C@H]3N(C)C2)CCCCNC(=O)[C@H](Cc2ccccc2)NC1=O"
class_label = "true"

[[record]]
molecule = "CC(=O)N(CCC(=O)NC(CN[C@@H]1CCCCNC(=O)[C@H](Cc2ccc(F)cc2)NC(=O)[C@H]([C@@H](C)O)NC(=O)[C@H](CCCCN)NC(=O)[C@@H](Cc2c[nH]c3ccccc23)NC(=O)[C@H](Cc2ccccc2)NC(=O)[C@H](Cc2ccccc2)NC(=O)[C@H](CCCNC(=N)N)NC1=O)Cc1ccc(O)cc1)C[C@@H]1C[C@@H]2c3cccc4[nH]cc(c34)C[C@H]2N(C)C1 (single isomer, unassigned)"
class_label = "false"

[[record]]
molecule = "C[C@@H](O)[C@@H]1NC(=O)[C@H](CCCCN)NC(=O)[C@@H](Cc2c[nH]c3ccccc23)NC(=O)[C@H](Cc2ccncc2)NC(=O)[C@H](Cc2ccccc2)NC(=O)[C@H](CCCNC(=N)N)NC(=O)[C@H](NCCS(=O)(=O)C[C@@H]2C[C@@H]3c4cccc5[nH]cc(c45)C[C@H]3N(C)C2)CCCCNC(=O)[C@H](Cc2ccc(O)cc2)NC1=O"
class_label = "true"

[[record]]
molecule = "C[C@@H](O)[C@@H]1NC(=O)[C@H](CCCCN)NC(=O)[C@@H](Cc2c[nH]c3ccccc23)NC(=O)[C@H](Cc2ccncc2)NC(=O)[C@H](Cc2ccccc2)NC(=O)[C@H](CCCNC(=N)N)NC(=O)[C@H](NC[C@H](CCCCNC(=O)CSC[C@@H]2C[C@@H]3c4cccc5[nH]cc(c45)C[C@H]3N(C)C2)NC(=O)CSC[C@@H]2C[C@@H]3c4cccc5[nH]cc(c45)C[C@H]3N(C)C2)CCCCNC(=O)[C@H](Cc2ccc(O)cc2)NC1=O"
class_label = "true"

[[record]]
molecule = "C[C@@H](O)[C@@H]1NC(=O)[C@H](CCCCN)NC(=O)[C@@H](Cc2c[nH]c3ccccc23)NC(=O)[C@H](Cc2ccccc2)NC(=O)[C@H](Cc2ccccc2)NC(=O)[C@H](CCCNC(=N)N)NC(=O)[C@H](NC[C@H](CCCCNC(=O)CSC[C@@H]2C[C@@H]3c4cccc5[nH]cc(c45)C[C@H]3N(C)C2)NC(=O)CSC[C@@H]2C[C@@H]3c4cccc5[nH]cc(c45)C[C@H]3N(C)C2)CCCCNC(=O)[C@H](Cc2ccc(F)cc2)NC1=O"
class_label = "false"

[[record]]
molecule = "C[C@@H](O)[C@@H]1NC(=O)[C@H](CCCCN)NC(=O)[C@@H](Cc2c[nH]c3ccccc23)NC(=O)[C@H](Cc2ccccc2)NC(=O)[C@H](Cc2ccccc2)NC(=O)[C@H](CCCNC(=N)N)NC(=O)[C@H](NC(=O)[C@H](CCCCNC(=O)CSC[C@@H]2C[C@@H]3c4cccc5[nH]cc(c45)C[C@H]3N(C)C2)NC(=O)CSC[C@@H]2C[C@@H]3c4cccc5[nH]cc(c45)C[C@H]3N(C)C2)CCNC(=O)[C@H](Cc2ccccc2)NC1=O [Reference Compound C, reference compound] (X2-K(X2)[dDab]RFF[dW]KTF; lactam 2-C)"
class_label = "false"

[[record]]
molecule = "C[C@@H](O)[C@@H]1NC(=O)[C@H](CCCCN)NC(=O)[C@@H](Cc2c[nH]c3ccccc23)NC(=O)[C@H](Cc2ccccc2)NC(=O)[C@H](Cc2ccccc2)NC(=O)[C@H](CCCNC(=N)N)NC(=O)[C@H](NC[C@H](Cc2ccc(O)cc2)NC(=O)CSC[C@@H]2C[C@@H]3c4cccc5[nH]cc(c45)C[C@H]3N(C)C2)CCCCNC(=O)[C@H](Cc2ccc(F)cc2)NC1=O"
class_label = "true"


Is 40 nM strictly greater than the molecule's reported EC50? molecule: C[C@@H](O)[C@@H]1NC(=O)[C@H](CCCCN)NC(=O)[C@@H](Cc2c[nH]c3ccccc23)NC(=O)[C@H](Cc2ccncc2)NC(=O)[C@H](Cc2ccccc2)NC(=O)[C@H](CCCNC(=N)N)NC(=O)[C@H](NC(=O)CSC[C@@H]2C[C@@H]3c4cccc5[nH]cc(c45)C[C@H]3N(C)C2)CCCCNC(=O)[C@H](Cc2ccccc2)NC1=O [Compound 24] (X2-[dK]RF[4Pal][dW]KTF; lactam 1-C)
true

---

Parameter Emax: see the listing below.
molecular target: UniProt:P30874; assay: Intracellular calcium mobilization assay (FLIPR Calcium 4), hSSTR2; type: cell-based; settings: read-out: hSSTR2 % Emax ± SEM
Bridge positions count the residues as written; N and C are the ends. Square brackets hold non-standard residues; d marks the D form. Peptide text beside a SMILES is read from it. * marks the point of attachment. X2 = CN1C[C@H](CSCC(=O)*)C[C@@H]2c3cccc4[nH]cc(c34)C[C@H]21; Phe(4-F) = N[C@@H](Cc1ccc(F)cc1)C(=O)O
Expressed in %, but write only the number.

Would you please look over these solved cases?
[[record]]
molecule = "C[C@@H](O)[C@@H]1NC(=O)[C@H](CCCCN)NC(=O)[C@@H](Cc2c[nH]c3ccccc23)NC(=O)[C@H](Cc2ccccc2)NC(=O)[C@H](Cc2ccccc2)NC(=O)[C@H](CCCNC(=N)N)NC(=O)[C@H](NC(=O)CSC[C@@H]2C[C@@H]3c4cccc5[nH]cc(c45)C[C@H]3N(C)C2)CCCCNC(=O)[C@H](Cc2ccc(F)cc2)NC1=O [Compound 34] (X2-[dK]RFF[dW]KT[Phe(4-F)]; lactam 1-C)"
unit_info = "%"
experimental_value = 95.1

[[record]]
molecule = "C[C@@H](O)[C@@H]1NC(=O)[C@H](CCCCN)NC(=O)[C@@H](Cc2c[nH]c3ccccc23)NC(=O)[C@H](Cc2ccccc2)NC(=O)[C@H](Cc2ccccc2)NC(=O)[C@H](CCCNC(=N)N)NC(=O)[C@H](NC(=O)[C@@H](Cc2ccc(O)cc2)NC(=O)CSC[C@@H]2C[C@@H]3c4cccc5[nH]cc(c45)C[C@H]3N(C)C2)CCCCNC(=O)[C@H](Cc2ccccc2)NC1=O [Compound 37] (X2-[dY][dK]RFF[dW]KTF; lactam 2-C)"
unit_info = "%"
experimental_value = 85.5


Requested read-out Emax, target or system UniProt:P30874, entry `C[C@@H](O)[C@@H]1NC(=O)[C@H](CCCCN)NC(=O)[C@@H](Cc2c[nH]c3ccccc23)NC(=O)[C@H](Cc2ccccc2)NC(=O)[C@H](Cc2ccccc2)NC(=O)[C@H](CCCNC(=N)N)NC(=O)[C@H](NCCSC[C@@H]2C[C@@H]3c4cccc5[nH]cc(c45)C[C@H]3N(C)C2)CCCCNC(=O)[C@H](Cc2ccccc2F)NC1=O`
96.9

---

target: hSSTR2 (Homo sapiens (Human), UniProt P30874); assay: Intracellular calcium mobilization assay (FLIPR Calcium 4), hSSTR2; type: cell-based; details: read-out: hSSTR2 % Emax ± SEM;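 also: agonist activity read as intracellular calcium rise in cells expressing human SSTR2, loaded with a calcium-sensitive dye for 60 min at 37 °C, measured by FLIPR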
Sequence (P30874 whole entry): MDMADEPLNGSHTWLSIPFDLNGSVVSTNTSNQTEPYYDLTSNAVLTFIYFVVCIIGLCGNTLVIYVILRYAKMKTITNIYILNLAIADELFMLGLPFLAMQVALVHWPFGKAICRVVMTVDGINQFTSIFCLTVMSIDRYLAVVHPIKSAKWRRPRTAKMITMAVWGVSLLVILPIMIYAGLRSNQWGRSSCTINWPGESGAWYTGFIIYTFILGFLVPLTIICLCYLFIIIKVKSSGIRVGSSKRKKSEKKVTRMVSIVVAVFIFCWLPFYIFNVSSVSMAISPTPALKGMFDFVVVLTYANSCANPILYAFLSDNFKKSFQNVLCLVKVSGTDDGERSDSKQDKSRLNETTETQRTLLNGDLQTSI
Numbered stars: 1 amine (or outer) side, 2 acyl side, 3 side chain; on linkers, the order of the positions; unused ones are H or OH. Bridge positions count the residues as written; N and C are the ends. Square brackets hold non-standard residues; d marks the D form. Peptide text beside a SMILES is read from it. X1 = CN1C[C@H](CSCCN(CCSC[C@@H]2C[C@@H]3c4cccc5[nH]cc(c45)C[C@H]3N(C)C2)[C@H](CCCCN[*:2])C(=O)[*:1])C[C@@H]2c3cccc4[nH]cc(c34)C[C@H]21; 4Pal = N[C@@H](Cc1ccncc1)C(=O)O
measurement-type: Emax
Report as: number unit

Would you please look over these solved cases?
[[record]]
compound = "C[C@@H](O)[C@@H]1NC(=O)[C@H](CCCCN)NC(=O)[C@@H](Cc2c[nH]c3ccccc23)NC(=O)[C@H](Cc2ccncc2)NC(=O)[C@H](Cc2ccccc2)NC(=O)[C@H](CCCNC(=N)N)NC(=O)[C@H](N(CCSC[C@@H]2C[C@@H]3c4cccc5[nH]cc(c45)C[C@H]3N(C)C2)CCSC[C@@H]2C[C@@H]3c4cccc5[nH]cc(c45)C[C@H]3N(C)C2)CCCCNC(=O)[C@H](Cc2ccccc2)NC1=O [Compound 29] (RF[4Pal][dW]KTF; linker N-C via X1)"
study_system = "hSSTR2 (Homo sapiens (Human), UniProt P30874)"
measurement_type = "Emax"
experimental_value = "97%"

[[record]]
compound = "C[C@@H](O)[C@@H]1NC(=O)[C@H](CCCCN)NC(=O)[C@@H](Cc2c[nH]c3ccccc23)NC(=O)[C@H](Cc2ccccc2)NC(=O)[C@H](Cc2ccccc2)NC(=O)[C@H](CCCNC(=N)N)NC(=O)[C@H](NCCSC[C@@H]2C[C@@H]3c4cccc5[nH]cc(c45)C[C@H]3N(C)C2)CCCCNC(=O)[C@H](Cc2ccc(F)cc2)NC1=O"
study_system = "hSSTR2 (Homo sapiens (Human), UniProt P30874)"
measurement_type = "Emax"
experimental_value = "99.1%"

[[record]]
compound = "C[C@@H](O)[C@@H]1NC(=O)[C@H](CCCCN)NC(=O)[C@@H](Cc2c[nH]c3ccccc23)NC(=O)[C@H](Cc2ccncc2)NC(=O)[C@H](Cc2ccccc2)NC(=O)[C@H](CCCNC(=N)N)NC(=O)[C@H](NC[C@H](Cc2ccc(O)cc2)NC(=O)CS(=O)(=O)C[C@@H]2C[C@@H]3c4cccc5[nH]cc(c45)C[C@H]3N(C)C2)CCCCNC(=O)[C@H](Cc2ccccc2)NC1=O"
study_system = "hSSTR2 (Homo sapiens (Human), UniProt P30874)"
measurement_type = "Emax"
experimental_value = "100%"


Consider the additional compound presented here.
Request the reported Emax associated with `C[C@@H](O)[C@@H]1NC(=O)[C@H](CCCCN)NC(=O)[C@@H](Cc2c[nH]c3ccccc23)NC(=O)[C@H](Cc2ccccc2)NC(=O)[C@H](Cc2ccccc2)NC(=O)[C@H](CCCNC(=N)N)NC(=O)[C@H](NC[C@H](Cc2ccc(O)cc2)NC(=O)CS(=O)(=O)C[C@@H]2C[C@@H]3c4cccc5[nH]cc(c45)C[C@H]3N(C)C2)CCCCNC(=O)[C@H](Cc2ccc(F)cc2)NC1=O`
99.5%
